Would you mind telling me the reported self-cleavage of each entry?
B1: Twister Ribozyme (parent)
chain: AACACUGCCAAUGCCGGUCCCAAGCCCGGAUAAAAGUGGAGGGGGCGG

variants of: B1; assay: self-cleavage, relative activity (ratio to wild type); higher = more cleavage; co-transcriptional

Please review the following examples before continuing.
| variantDescription | self-cleavage |
| --- | --- |
| A1G A23C | 0.202 |
| A10G G24U | 0.18 |
| G13U G45A | 0.308 |
| C46G G47A | 0.818 |
| U12A G43A | 0.298 |

Answer for every listed entry: what is its self-cleavage? The entries follow.
1. C15A G48A
2. C9A G43U
3. C8U A32G
4. C27U G42C
5. A32U G39U
6. C8U G43U

1: 0.528; 2: 0.149; 3: 0.385; 4: 0.19; 5: 0.158; 6: 0.131

Answer for every listed entry: what is its self-cleavage? The entries follow.
1. G7A A34U
2. G7U U31A

[0.154, 0.133]
